target: Steroid 17-alpha-hydroxylase/17,20 lyase (Homo sapiens, UniProt P05093); assay: Inhibition of CYP17 in human testicular microsomes using 17alpha-hydroxypregnenolone as substrate assessed as decrease in DHEA levels at 10 nM after 90 mins by ELISA relative to control; design: species or system Testis; conditions: 1.5 h
Sequence (P05093 whole entry): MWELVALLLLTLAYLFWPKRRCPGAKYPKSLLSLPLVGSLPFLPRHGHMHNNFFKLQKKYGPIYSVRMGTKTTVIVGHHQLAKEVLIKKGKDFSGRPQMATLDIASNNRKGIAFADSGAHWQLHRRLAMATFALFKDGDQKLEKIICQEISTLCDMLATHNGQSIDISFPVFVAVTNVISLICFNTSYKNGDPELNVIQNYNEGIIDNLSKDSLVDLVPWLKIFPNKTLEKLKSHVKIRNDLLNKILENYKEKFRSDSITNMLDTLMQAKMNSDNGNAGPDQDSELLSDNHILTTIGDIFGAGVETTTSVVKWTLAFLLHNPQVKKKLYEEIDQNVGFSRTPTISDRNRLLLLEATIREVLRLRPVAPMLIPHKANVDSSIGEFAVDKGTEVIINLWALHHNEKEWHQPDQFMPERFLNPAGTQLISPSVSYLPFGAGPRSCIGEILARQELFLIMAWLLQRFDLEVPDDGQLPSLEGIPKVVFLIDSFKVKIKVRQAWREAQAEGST
MEASURED METRIC: inhibition at 0.01 µM

Some entries whose results are on file:
INSERT INTO results (molecule, meas_value) VALUES
  ('C[C@]12CCC(=O)NC[C@@H]1CC[C@@H]1[C@@H]2CC[C@]2(C)C(n3ccnc3)=CC[C@@H]12', '50 to 80%'),
  ('CCCOc1cncc(C2=CC[C@H]3[C@@H]4CCN5C(=O)CCCC[C@]5(C)[C@H]4CC[C@]23C)c1', '50 to 80%'),
  ('COc1cncc(C2=CC=C3[C@@H]4CC=C5C[C@@H](OC(C)=O)CC[C@]5(C)[C@H]4CC[C@]23C)c1', '≥ 80%');

What does the record list as inhibition at 0.01 µM for `COc1cncc(C2=CC=C3[C@@H]4CCC5=CC(=O)NCC[C@]5(C)[C@H]4CC[C@]23C)c1` ?
50 to 80%

What does the record list as inhibition at 0.01 µM for `C[C@]12CC[C@H]3[C@@H](CC[C@H]4CC(=O)NCC[C@@]43C)C1=CC=C2n1ccnc1` ?
≥ 80%

What does the record list as inhibition at 0.01 µM for C[C@]12CC(O)C[C@@H]1CC[C@@H]1[C@@H]2CC[C@]2(C)C(n3ccnc3)=CC[C@@H]12 (some centres not stated) ?
≥ 80%

What does the record list as inhibition at 0.01 µM for `CN1CC[C@@]2(C)C(=CC1=O)CC[C@H]1C3=CC=C(c4cccnc4)[C@@]3(C)CC[C@@H]12` ?
≥ 80%

----------
target: CYP21 (steroid 21-hydroxylase) (Homo sapiens, UniProt P08686); experiment: Inhibition of human CYP21 transfected in HEK293 cells assessed as decrease in conversion of progesterone to 11-deoxycorticosterone preincubated for 5 hrs followed by progesterone addition measured after 20 hrs by ELISA; type: cell-based; set-up: concentration or dose not given beside the values; conditions: HEK293 cells transfected with human CYP21, probe progesterone
Sequence (P08686 whole entry): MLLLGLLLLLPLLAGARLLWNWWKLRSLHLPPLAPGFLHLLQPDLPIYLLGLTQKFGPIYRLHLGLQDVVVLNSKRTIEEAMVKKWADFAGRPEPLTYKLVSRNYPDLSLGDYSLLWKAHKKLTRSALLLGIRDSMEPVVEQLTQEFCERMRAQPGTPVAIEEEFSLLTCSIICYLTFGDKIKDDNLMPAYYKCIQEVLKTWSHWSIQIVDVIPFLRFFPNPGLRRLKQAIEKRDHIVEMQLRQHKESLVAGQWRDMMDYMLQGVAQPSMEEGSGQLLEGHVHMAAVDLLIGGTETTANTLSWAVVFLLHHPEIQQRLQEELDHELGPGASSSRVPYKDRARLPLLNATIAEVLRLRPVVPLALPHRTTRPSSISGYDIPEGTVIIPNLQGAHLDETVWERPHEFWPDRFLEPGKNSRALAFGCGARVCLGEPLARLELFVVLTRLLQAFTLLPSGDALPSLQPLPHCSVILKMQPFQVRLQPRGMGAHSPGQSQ
MEASURED METRIC: inhibition at 20 h

INSERT INTO assay_data (compound, measured_metric, meas_value) VALUES
  ('CC(=O)N[C@@H]1CC[C@@]2(C)C(=CC[C@@H]3[C@@H]2CC[C@]2(C)C(n4ccnc4)=CC[C@@H]32)C1', 'inhibition at 20 h', '≥ 50%'),
  ('C=C1CC2[C@H](CC[C@]3(C)C(c4cccnc4)=CC[C@@H]23)C2(C)C=CC(=O)C=C12 (single isomer, unassigned)', 'inhibition at 20 h', '≥ 50%'),
  ('C[C@]12CCC(=O)C(O)=C1C=C[C@@H]1[C@@H]2CC[C@]2(C)C(c3cccnc3)=CC[C@@H]12', 'inhibition at 20 h', '≥ 50%'),
  ('C[C@]12CC[C@H]3[C@@H](C=CC4=CC(=O)CC[C@@]43C)C1=CC=C2c1cccnc1', 'inhibition at 20 h', '≥ 50%'),
  ('C[C@]1(O)CC[C@@]2(C)C(=CC[C@@H]3[C@@H]2CC[C@]2(C)C(c4cccnc4)=CC[C@@H]32)C1', 'inhibition at 20 h', '≥ 50%');

What does the record list as inhibition at 20 h for C[C@]12CC[C@@H](NC(=O)C3CC3)CC1=CC[C@H]1C3CC=C(c4cccnc4)[C@@]3(C)CC[C@@H]12 (single isomer, unassigned) ?
≥ 50%

What does the record list as inhibition at 20 h for `CN1C(=O)CC[C@@]2(C)C1=CC[C@@H]1[C@@H]2CC[C@]2(C)C(c3cncc(C(F)F)c3)=CC[C@@H]12` ?
< 10%

What does the record list as inhibition at 20 h for `COC(=O)N1CCC[C@@]2(C)[C@@H](CC[C@@H]3[C@@H]2CC[C@]2(C)C(n4ccnc4)=CC[C@@H]32)C1` ?
10 to 50%

What does the record list as inhibition at 20 h for C[C@]12CCC3(CO3)CC1CCC1C2CC[C@]2(C)C(c3cccnc3)=CCC12 (some centres undefined) ?
10 to 50%

What does the record list as inhibition at 20 h for C[C@]12CC[C@H]3[C@@H](CC(CO)C4=CC(=O)CC[C@@]43C)C1=CC=C2c1cccnc1 (some centres undefined) ?
≥ 50%

What does the record list as inhibition at 20 h for `C[C@]12CC/C(=N\O)C=C1C1(CC1)C[C@@H]1[C@@H]2CC[C@]2(C)C(c3cccnc3)=CC[C@@H]12` ?
10 to 50%

What does the record list as inhibition at 20 h for `C[C@]12CC[C@H](O)CC1=CC[C@@H]1[C@@H]2CC[C@]2(C)C(c3cncc(NS(=O)(=O)C(F)(F)F)c3)=CC[C@@H]12` ?
< 10%

What does the record list as inhibition at 20 h for C[C@]12CCC(=O)C=C1C1CC1[C@@H]1[C@@H]2CC[C@]2(C)C(c3cncc(F)c3)=CC[C@@H]12 (some centres undefined) ?
≥ 50%

What does the record list as inhibition at 20 h for C[C@]12CC[C@H]3[C@@H](CCC45CC4C(O)CC[C@]35C)[C@@H]1CC=C2c1cccnc1 (some centres undefined) ?
≥ 50%

What does the record list as inhibition at 20 h for C[C@]12CCC(=O)C=C1C1CC1[C@@H]1[C@@H]2CC[C@]2(C)C(c3cccnc3)=CC[C@@H]12 (some centres undefined) ?
≥ 50%

What does the record list as inhibition at 20 h for CCc1ccncc1C1=CC=C2[C@@H]3CCC4C[C@@H](OC(C)=O)CC[C@]4(C)[C@H]3CC[C@]12C (some centres undefined) ?
10 to 50%

What does the record list as inhibition at 20 h for CC1C(O)CC[C@@]2(C)C1CC[C@@H]1[C@@H]2CC[C@]2(C)C(c3cccnc3)=CC[C@@H]12 (some centres undefined) ?
10 to 50%

What does the record list as inhibition at 20 h for `Cc1ccccc1C(=O)O[C@H]1CC[C@@]2(C)C(=CC[C@H]3C4=CC=C(c5cccnc5)[C@@]4(C)CC[C@@H]32)C1` ?
10 to 50%

What does the record list as inhibition at 20 h for CC1C[C@H]2C3=CC=C(c4ccc(F)nc4)[C@@]3(C)CC[C@@H]2[C@@]2(C)CCC(=O)C=C12 (some centres undefined) ?
10 to 50%
